Reported microsomal CLint at 1 μM values are given for each entry in this list.
test.protocol: In vitro metabolism rate determination, human liver microsome (HLM) assay
Type: in vitro ADME
experimental.conditions: human, liver microsomes, read-out: HLM: Clint, app
Kindly write the number and append the unit.

Please review the entries below; each comes with its answer.
[
  {
    "molecule": "COC(=O)N1CCN(C(=O)[C@@H]2CN(C(C)(C)C)C[C@H]2c2ccc(F)cc2F)CCC1c1ccc(F)cc1F (mixture of isomers)",
    "result": "32.8 µL/min/mg"
  },
  {
    "molecule": "CC(C)C(=O)N1CCN(C(=O)[C@@H]2CN(c3ccc(=O)n(C)n3)C[C@H]2c2ccc(Cl)cn2)CCC[C@H]1c1ccc(Cl)cc1",
    "result": "13.9 µL/min/mg"
  }
]

Kindly review the next molecule as well.
Lab note: COc1ccc([C@@H]2CN(c3ccc(C#N)nn3)C[C@H]2C(=O)N2CCC[C@@H](c3ccc(Cl)cc3)N(C(=O)CC(F)(F)F)CC2)c(F)c1 gave microsomal CLint at 1 μM of 30.2 µL/min/mg
